Data origin: patent US20230330254A1

Experiment: Plasma protein binding (equilibrium dialysis)
Type: in vitro ADME, human
Settings: human, plasma; Table 5C
Experimental Endpoint: fraction unbound at 4 h, 2 µM
Write the value as a bare number.

Qu. Reported fraction unbound at 4 h, 2 µM for CCc1cc(OCCCCn2cc(COCCOCCOCCOCCOCCOCCOCCOCCN)nn2)ccc1-c1ccc(C[C@H](NC(=O)[C@H](CC(=O)O)NC(=O)[C@H](CO)NC(=O)[C@@H](NC(=O)C(C)(Cc2ccccc2F)NC(=O)[C@@H](NC(=O)CNC(=O)[C@H](Cc2nn[nH]n2)NC(=O)C(C)(C)C(=O)NCCc2cnc[nH]2)[C@@H](C)O)[C@@H](C)O)C(=O)N[C@@H](CCCc2cc(C)cc(C)c2)C(N)=O)cc1 (stereo partly shown) : what is it?
Ans. 0.0203

====

Target: human GLP1R (Homo sapiens, UniProt P43220)
Sequence (P43220 24-463): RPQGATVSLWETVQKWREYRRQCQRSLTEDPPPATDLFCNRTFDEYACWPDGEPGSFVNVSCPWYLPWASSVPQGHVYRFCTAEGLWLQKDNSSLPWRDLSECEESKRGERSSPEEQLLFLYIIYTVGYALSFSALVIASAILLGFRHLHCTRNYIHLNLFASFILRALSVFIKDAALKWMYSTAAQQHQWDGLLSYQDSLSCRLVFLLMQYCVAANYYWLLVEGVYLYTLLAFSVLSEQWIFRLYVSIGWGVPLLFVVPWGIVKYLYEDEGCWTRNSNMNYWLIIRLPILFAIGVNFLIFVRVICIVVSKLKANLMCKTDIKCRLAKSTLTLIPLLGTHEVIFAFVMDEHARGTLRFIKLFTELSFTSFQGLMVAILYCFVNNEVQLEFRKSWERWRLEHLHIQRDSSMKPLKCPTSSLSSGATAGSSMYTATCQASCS
Experiment: Luciferase reporter assay, HEK293/CRE-Luc/hGLP1R (Example 17)
Assay type: cell-based
Set-up: engineered to express full-length human GLP1R, cynomolgus GLP1R; expressed in transfected cells; host or cells: HEK293/CRE-Luc
Conditions: HEK293/CRE-Luc/hGLP1R; relative to M2361 of the same experiment
List of Relative Signal:Noise (% M2361) values.
Reply with just the number (in %).

See these solved cases before continuing.
| Compound Smiles | Experimental Endpoint | Result Units | Endpoint Value |
| --- | --- | --- | --- |
| CCc1cc(OCCCCN)ccc1-c1ccc(C[C@H](NC(=O)[C@H](CC(=O)O)NC(=O)[C@H](CO)NC(=O)[C@@H](NC(=O)[C@](C)(Cc2ccccc2F)NC(=O)[C@@H](NC(=O)CNC(=O)[C@H](Cc2nn[nH]n2)NC(=O)[C@H](C)NC(=O)[C@@H](N)Cc2ccc(O)cc2)[C@@H](C)O)[C@@H](C)O)C(=O)N[C@@H](CCCc2cc(C)cc(C)c2)C(N)=O)cc1 | Relative Signal:Noise (% M2361) | % | 103.6 |
| CCc1cc(OCCCCNC(=O)[C@H](CO)NC(=O)CNC(=O)CNC(=O)CNC(=O)CN)ccc1-c1ccc(C[C@H](NC(=O)[C@H](CC(=O)O)NC(=O)[C@H](CO)NC(=O)[C@@H](NC(=O)[C@](C)(Cc2ccccc2F)NC(=O)[C@@H](NC(=O)CNC(=O)[C@H](Cc2nn[nH]n2)NC(=O)C(C)(C)C(=O)NCCc2cnc[nH]2)[C@@H](C)O)[C@@H](C)O)C(=O)N[C@@H](CCCc2cc(C)cc(C)c2)C(N)=O)cc1 | Relative Signal:Noise (% M2361) | % | 86.0 |

Field: next compound
Qu. // fetch human GLP1R (Homo sapiens, UniProt P43220) Relative Signal:Noise (% M2361) for CCc1cc(OCCCCN)ccc1-c1ccc(C[C@H](NC(=O)[C@H](CC(=O)O)NC(=O)[C@H](CO)NC(=O)[C@@H](NC(=O)[C@](C)(Cc2ccccc2F)NC(=O)[C@@H](NC(=O)CNC(=O)[C@H](Cc2nn[nH]n2)NC(=O)[C@@]2(C)CCN(CCc3cnc[nH]3)C2=O)[C@@H](C)O)[C@@H](C)O)C(=O)N[C@@H](CCCc2cc(C)cc(C)c2)C(N)=O)cc1
Ans. 103.1

====

Biological target: UniProt:P43220
Test: Luciferase reporter assay, HEK293/CRE-Luc/hGLP1R cells (Example 11)
Format: cell-based
Set-up: engineered to express full-length human GLP1R, cynomolgus GLP1R; expressed in transfected cells; host or cells: HEK293/CRE-Luc
Conditions: Table 11; Experiment A
Where a SMILES comes first, the peptide text is derived from it. [ ]: non-standard residue; d: D form. The star is where a group is joined. Bip(2'-Et,4'-O(CH2)4NH2) = CCc1cc(OCCCCN)ccc1-c1ccc(C[C@H](N)C(=O)O)cc1; Malonyl(2,2-Me2,histaminyl) = CC(C)(C(=O)NCCc1cnc[nH]1)C(=O)*; Nva(5-(3,5-Me2Ph)) = Cc1cc(C)cc(CCC[C@H](N)C(=O)O)c1; Ala(1H-tetrazol-5-yl) = N[C@@H](Cc1nnn[nH]1)C(=O)O; αMePhe(2-F) = C[C@](N)(Cc1ccccc1F)C(=O)O; X3 = CC(C)(C(=O)*)c1ccn[nH]1; NHPh = c1ccc(N*)cc1
Experimental Endpoint: HEK293/CRE-LUC/hGLP1R Relative Potency (% P8 EC50) (%)
Reply with just the number (in %).

See these solved cases before continuing.
| Molecule | Result Units | Endpoint Value |
| --- | --- | --- |
| CCc1cc(OCCCCn2cc(COCCOCCOCCOCCOCCOCCOCCOCCN)nn2)ccc1-c1ccc(C[C@H](NC(=O)[C@H](CC(=O)O)NC(=O)[C@H](CO)NC(=O)[C@@H](NC(=O)C(C)(Cc2ccccc2F)NC(=O)[C@@H](NC(=O)CNC(=O)[C@H](Cc2nn[nH]n2)NC(=O)C(C)(C)C(=O)NCCc2cnc[nH]2)[C@@H](C)O)[C@@H](C)O)C(=O)N[C@@H](CCCc2cc(C)cc(C)c2)C(N)=O)cc1 (some centres unmarked) | % | 33.1 |
| CCc1cc(OCCCCN)ccc1-c1ccc(C[C@H](NC(=O)[C@H](CC(=O)O)NC(=O)[C@H](CO)NC(=O)[C@@H](NC(=O)[C@](C)(Cc2ccccc2F)NC(=O)[C@@H](NC(=O)CNC(=O)[C@H](Cc2nn[nH]n2)NC(=O)C(C)(C)c2ccn[nH]2)[C@@H](C)O)[C@@H](C)O)C(=O)N[C@@H](CCCc2cc(C)cc(C)c2)C(N)=O)cc1 [P6] (X3-[Ala(1H-tetrazol-5-yl)]GT[αMePhe(2-F)]TSD[Bip(2'-Et,4'-O(CH2)4NH2)][Nva(5-(3,5-Me2Ph))]-NH2) | % | 0.9 |
| CCc1cc(OCCCCN)ccc1-c1ccc(C[C@H](NC(=O)[C@H](CC(=O)O)NC(=O)[C@H](CO)NC(=O)[C@@H](NC(=O)[C@](C)(Cc2ccccc2F)NC(=O)[C@@H](NC(=O)CNC(=O)[C@H](Cc2nn[nH]n2)NC(=O)[C@H](C)NC(=O)[C@@H](N)Cc2cnc[nH]2)[C@@H](C)O)[C@@H](C)O)C(=O)N[C@@H](CCCc2cc(C)cc(C)c2)C(N)=O)cc1 [P10] (H-HA[Ala(1H-tetrazol-5-yl)]GT[αMePhe(2-F)]TSD[Bip(2'-Et,4'-O(CH2)4NH2)][Nva(5-(3,5-Me2Ph))]-NH2) | % | 38.0 |

Qu. // fetch UniProt:P43220 HEK293/CRE-LUC/hGLP1R Relative Potency (% P8 EC50) for CCc1cc(OCCCCN)ccc1-c1ccc(C[C@H](NC(=O)[C@H](CC(=O)O)NC(=O)[C@H](CO)NC(=O)[C@@H](NC(=O)[C@](C)(Cc2ccccc2F)NC(=O)[C@@H](NC(=O)CNC(=O)[C@H](Cc2nn[nH]n2)NC(=O)C(C)(C)C(=O)NCCc2cnc[nH]2)[C@@H](C)O)[C@@H](C)O)C(=O)N[C@@H](CCCc2cc(C)cc(C)c2)C(=O)Nc2ccccc2)cc1 [P23] ({Malonyl(2,2-Me2,histaminyl)}-[Ala(1H-tetrazol-5-yl)]GT[αMePhe(2-F)]TSD[Bip(2'-Et,4'-O(CH2)4NH2)][Nva(5-(3,5-Me2Ph))]-NHPh)
Ans. 103.0

Qu. Entry CCc1cc(OCCCCN)ccc1-c1ccc(C[C@H](NC(=O)[C@H](CC(=O)O)NC(=O)[C@H](CO)NC(=O)[C@@H](NC(=O)[C@](C)(Cc2ccccc2F)NC(=O)[C@@H](NC(=O)CNC(=O)[C@H](CCC(N)=O)NC(=O)C(C)(C)C(=O)NCCc2cnc[nH]2)[C@@H](C)O)[C@@H](C)O)C(=O)N[C@@H](CCCc2cc(C)cc(C)c2)C(N)=O)cc1 please
Ans. 0.7

====

Target: human GLP1R (Homo sapiens, UniProt P43220)
Experiment: Luciferase reporter assay, HEK293/CRE-Luc/hGLP1R cells (Example 11)
Format: cell-based
Set-up: engineered to express full-length human GLP1R, cynomolgus GLP1R; expressed in transfected cells; host or cells: HEK293/CRE-Luc
Details: Table 11; Experiment A
Where a SMILES comes first, the peptide text is derived from it. [ ]: non-standard residue; d: D form. The star is where a group is joined. Bip(2'-Et,4'-O(CH2)4NH2) = CCc1cc(OCCCCN)ccc1-c1ccc(C[C@H](N)C(=O)O)cc1; Nva(5-(3,5-Me2Ph)) = Cc1cc(C)cc(CCC[C@H](N)C(=O)O)c1; Ala(1H-tetrazol-5-yl) = N[C@@H](Cc1nnn[nH]1)C(=O)O; αMePhe(2-F) = C[C@](N)(Cc1ccccc1F)C(=O)O; X1 = O=C(CCCCCc1cnc[nH]1)*
Experimental Endpoint: HEK293/CRE-LUC/hGLP1R Relative Potency (% P8 EC50) (%)
Reply with just the number (in %).

Qu. Reported HEK293/CRE-LUC/hGLP1R Relative Potency (% P8 EC50) for CCc1cc(OCCCCN)ccc1-c1ccc(C[C@H](NC(=O)[C@H](CC(=O)O)NC(=O)[C@H](CO)NC(=O)[C@@H](NC(=O)[C@](C)(Cc2ccccc2F)NC(=O)[C@@H](NC(=O)CNC(=O)[C@H](Cc2nn[nH]n2)NC(=O)CCCCCc2cnc[nH]2)[C@@H](C)O)[C@@H](C)O)C(=O)N[C@@H](CCCc2cc(C)cc(C)c2)C(N)=O)cc1 [P11] (X1-[Ala(1H-tetrazol-5-yl)]GT[αMePhe(2-F)]TSD[Bip(2'-Et,4'-O(CH2)4NH2)][Nva(5-(3,5-Me2Ph))]-NH2) : what is it?
Ans. 0.8
